- Tested on: vascular thrombosis of the rat tail induced by K-carrageenin and endothelin-1
- experiment-description: Experimental thrombotic vascular disease test (K-carrageenin + endothelin-1, rat tail)
- Assay type: in vivo
- measurement-conditions: oral administration for four days prior to the test; carnitines 300 mg/kg (combination 5 x 75 mg/kg), coenzyme Q10 100 mg/kg; 24 h after K-carrageenin
measure-name: % inhibition of thrombosis after 24 h (%)
Numeric answer only, unit % assumed.

substance-smiles | unit-abbreviation | recorded-value
CC(=O)O[C@H](CC(=O)[O-])C[N+](C)(C)C | % | 11.5
C[N+](C)(C)C[C@H](O)CC(=O)[O-] | % | 9.2
CCC(=O)O[C@H](CC(=O)[O-])C[N+](C)(C)C | % | 30.5

--- query ---
What measured % inhibition of thrombosis after 24 h goes with COC1=C(OC)C(=O)C(C/C=C(\C)CC/C=C(\C)CC/C=C(\C)CC/C=C(\C)CC/C=C(\C)CC/C=C(\C)CC/C=C(\C)CC/C=C(\C)CC/C=C(\C)CCC=C(C)C)=C(C)C1=O ?
12.5

Ref: patent US6814972B2
